System: MDA-MB-231 multicell spheroids, viability (%T/C)
Assay: Anticancer human tumor MDA-MB-231 cell line growth inhibition [IpAb];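 note: viability read after seven days of drug exposure; 100% = DMSO vehicle control viability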
Condition info: second compound 0.1 µM; first compound 0.0316 µM; active compounds read low
Parameter: viability, T/C. Scope: all listed entries.

| Compound | viability, T/C, % |
| --- | --- |
| Cn1ncc(Cl)c1-c1cc(C(=O)NC(CN)Cc2cccc(F)c2)sc1Cl (stereo not given) + CC(C)NCC(C(=O)N1CCN(c2ncnc3c2C(C)CC3O)CC1)c1ccc(Cl)cc1 | 99.1 |
| COc1c(OCCCN2CCOCC2)ccc2c3n(c(=NC(=O)c4cnc(N)nc4)nc12)CCN3 + CCN1CCN(Cc2ccc(Nc3ncc(F)c(-c4cc(F)c5nc(C)n(C(C)C)c5c4)n3)nc2)CC1 | 36.6 |
| C=CC(=O)N1CCN(c2nc(=O)n(-c3c(C)ccnc3C(C)C)c3nc(-c4c(O)cccc4F)c(F)cc23)C(C)C1 (stereo not given) + CC(C)NCC(C(=O)N1CCN(c2ncnc3c2C(C)CC3O)CC1)c1ccc(Cl)cc1 | 111 |
| C=CC(=O)N1CCN(c2nc(=O)n(-c3c(C)ccnc3C(C)C)c3nc(-c4c(O)cccc4F)c(F)cc23)C(C)C1 (stereo not given) + CCN1CCN(Cc2ccc(Nc3ncc(F)c(-c4cc(F)c5nc(C)n(C(C)C)c5c4)n3)nc2)CC1 | 61.3 |
| Cn1ncnc1[C@H]1c2n[nH]c(=O)c3cc(F)cc(c23)N[C@@H]1c1ccc(F)cc1 + CC(C)NCC(C(=O)N1CCN(c2ncnc3c2C(C)CC3O)CC1)c1ccc(Cl)cc1 | 76.6 |
